src = the CATMoS acute toxicity set (Mansouri et al. 2021)

assayText: GHS categories as the set defines them, by LD50: 1 up to 5, 2 up to 50, 3 up to 300, 4 up to 2000, 5 above 2000 mg/kg
assayContext: rat; in vivo; po
Source text: […]The data set underlying the modeling effort for this project was initially compiled by NICEATM and U.S. EPA’s CCTE. Briefly, LD50 data were collected from rat acute oral systemic toxicity tests, including limit tests, ranges/confidence intervals, and discrete LD50 values. The full data set included 21,200 LD50 entries for 15,688 substances. […]
valueKind: GHS category
Lab note: jot the number down without any unit.

Identify GHS category associated with the compound Cc1ccc(C2OC[C@@H]3OC(c4ccc(C)c(C)c4)O[C@H]([C@H](O)CO)[C@@H]3O2)cc1C (stereo partly specified)
5

Identify GHS category associated with the compound `CCc1cccc(OP(=O)(Oc2cccc(CC)c2)Oc2cccc(CC)c2)c1`
5

Identify GHS category associated with the compound `CCOC[C@@H]1CO[C@@](Cn2ccnc2)(c2cc3cc(Cl)cc(Cl)c3o2)O1`
4

Identify GHS category associated with the compound `CCCCCNC(=O)c1cnc2cccc(C)n2c1=O`
3

Identify GHS category associated with the compound `C=C(C)C(=O)OCCNC(C)(C)C`
4

Identify GHS category associated with the compound CC(C)=CCN(CC=C(C)C)CCC(C#N)(c1ccc2ccccc2c1)C(C)C (stereo unspecified)
4

Identify GHS category associated with the compound CCOC(=O)C1CN(C)C2CCCC(C)N2C1=O (stereo unspecified)
5

Identify GHS category associated with the compound `CCCCCCCCCCCCCCCCCCCCCC(=O)Nc1ccn([C@@H]2O[C@H](CO)[C@@H](O)[C@@H]2O)c(=O)n1`
4

Identify GHS category associated with the compound `COC(=O)CCc1cc(-n2nc3ccccc3n2)c(O)c(C(C)(C)C)c1`
5

Identify GHS category associated with the compound CNC(=O)Oc1cccc2c1OC(C)O2 (stereo unspecified)
3

Identify GHS category associated with the compound `O=C1CC[C@H]2CO[C@@H]1O2`
5

Identify GHS category associated with the compound `CN(C)c1ccc(C=Nc2ccccc2C(=O)O)cc1`
4

Identify GHS category associated with the compound `CS(=O)(=O)c1cc(C(F)(F)F)ccc1C(=O)c1cnoc1C1CC1`
5

Identify GHS category associated with the compound CC1CCC2(OC1)OC1CC3C4CC=C5CC(O)CCC5(C)C4CCC3(C)C1C2C (stereo unspecified)
5

Identify GHS category associated with the compound `C[C@@H]1CN([C@H]2CC[C@](C#N)(c3ccc(F)cc3)CC2)CC[C@]1(C(=O)O)c1ccccc1`
5

Identify GHS category associated with the compound CCCCC1COCC(C)C1OC(C)=O (stereo unspecified)
5

Identify GHS category associated with the compound `CCCCCCC(C)(C)c1cc(O)c2c(c1)OC(C)(C)[C@@H]1CCC(=O)C[C@@H]21`
4

Identify GHS category associated with the compound `CC1(C)COC(Cn2ccnc2)(c2cc3ccccc3o2)OC1`
4

Identify GHS category associated with the compound `O=C(NC(=O)c1c(F)cccc1F)Nc1cc(Cl)c(OC(F)(F)C(F)F)c(Cl)c1`
5

Identify GHS category associated with the compound CCC1OC(=O)C(C)C(OC2CC(C)(OC)C(O)C(C)O2)C(C)C(OC2OC(C)CC(N(C)C)C2O)C(C)(O)CC(C)(F)C(=O)C(C)C(O)C1(C)O (stereo unspecified)
5

Identify GHS category associated with the compound `COCCOC=C1OC2=C(C(=O)N1c1ccccn1)N(C)S(=O)(=O)c1cc(Cl)sc12`
2
